Origin of the recorded values: the RNAGym collection of RNA variant scans (doi:10.7554/elife.80360)

B1: Hairpin Ribozyme (parent)
chain: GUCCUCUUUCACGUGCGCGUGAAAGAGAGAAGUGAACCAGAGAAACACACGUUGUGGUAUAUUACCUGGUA

# Variants of: B1
# protocol-details: self-cleavage, relative activity (ratio to wild type); higher = more cleavage; co-transcriptional
self-cleavage vs 0.3: at or above is label 1, below is label 0.

Exam item: Check this variant for self-cleavage at or above 0.3: "GUCCUCUUUCACGUGCGCGUGAAAGAGAAAAGUGAACCAGAGAAACACACGUUGUGGUACAUUACCUGGUA"
Marked response: label 0

Exam item: Also need "GUCCUCUUUCACGUGCGCGUGAAAGAGAGAAGUGAACCAGAGACACACACGUUGGGGUAUAUUACCUGGUA" , thanks.
Marked response: label 0

Exam item: Also need "GUCCUCUUUCACGUGCGCGUGAAAGAGAGAAGUGAACCAGAGAUACACACGUUGUGGUAUAUUACCCGGUA" , thanks.
Marked response: label 0

Exam item: Also need "GUCCUCUCUCACUUGCGCGUGAAAGAGAGAAGUGAACCAGAGAAACACACGUUGUGGUAUAUUACCUGGUA" , thanks.
Marked response: label 1

Exam item: Also need "CUCCUCUUUCACGGGCGCGUGAAAGAGAGAAGUGAACCAGAGAAACACACGUUGUGGUAUAUUACCUGGUA" , thanks.
Marked response: label 0

Exam item: Also need "GUCCUCUUUCACGUGCGCGUGAAAGAGAGAAGUGAACCAGCGAAACACACGUUGUGGUAUAUUACCGGGUA" , thanks.
Marked response: label 0

Exam item: Also need "GUCCUCUUUCACGUGCGCGUGACAGAGAGAAGUGAACCAGAGAAACACAAGUUGUGGUAUAUUACCUGGUA" , thanks.
Marked response: label 1

Exam item: Also need "GUCCUCUUUCCCGUGCGCGUGAAAGACAGAAGUGAACCAGAGAAACACACGUUGUGGUAUAUUACCUGGUA" , thanks.
Marked response: label 0

Exam item: Also need "GUCCUCUUUCACGUGCGCGUGAAAGAGAGAAGUGAAACAGAGAAACACAUGUUGUGGUAUAUUACCUGGUA" , thanks.
Marked response: label 0

Exam item: Also need "GUCCUCUUUCACGUGCGCGUGAAAGAGAGAAGUGAACCAGAGAAAUACACGUUGCGGUAUAUUACCUGGUA" , thanks.
Marked response: label 0

Exam item: Also need "GUCCUCUUUCACGUGCGCGUGAAAGAGAGAAGUGAACCAGAGAAACACCCGUUGUGAUAUAUUACCUGGUA" , thanks.
Marked response: label 0

Exam item: Also need "GUCCUCUUUCACGUGCGCGUGAAAUAGAGAAGCGAACCAGAGAAACACACGUUGUGGUAUAUUACCUGGUA" , thanks.
Marked response: label 0

Exam item: Also need "AUCCUCUUUCACGUGCGCGUGAAAGAGAGAAGUGAAGCAGAGAAACACACGUUGUGGUAUAUUACCUGGUA" , thanks.
Marked response: label 0

Exam item: Also need "GUCCUCUUUCACGUGCGCGUGAAAGAGAGAAGUGGACCAGAGAAACACAUGUUGUGGUAUAUUACCUGGUA" , thanks.
Marked response: label 1

Exam item: Also need "GUCCUCCUUCACGUGCGCGUGAAAGAGAGAAGUGAACCAGAGAAACACACGUUGUGGAAUAUUACCUGGUA" , thanks.
Marked response: label 1

Exam item: Also need "GUCCUCUUUCAGGUGCGCGUGAAAGAGAGAAGUGAACCAGAGUAACACACGUUGUGGUAUAUUACCUGGUA" , thanks.
Marked response: label 0

Exam item: Also need "GUCCUCAUUCACGUGCGCGCGAAAGAGAGAAGUGAACCAGAGAAACACACGUUGUGGUAUAUUACCUGGUA" , thanks.
Marked response: label 1

Exam item: Also need "GUCCUCUUUCACGUGCGCGUGAAAGAGAGAAGUGAACCAGAGAAACACACGUUGUGGUAUAUUAGUUGGUA" , thanks.
Marked response: label 1

Exam item: Also need "GUCCUCUUUCACGUGCUCGUGAAAGAGAGAAGUGAAACAGAGAAACACACGUUGUGGUAUAUUACCUGGUA" , thanks.
Marked response: label 0

Exam item: Also need "GACCUCUUUCACGUGCGCGUGAAAGAGAGAAGUGAACCUGAGAAACACACGUUGUGGUAUAUUACCUGGUA" , thanks.
Marked response: label 0

Exam item: Also need "GUCCUCUUUCACGUGCGAGUGAAAGAGAGAAGUGAACCAGGGAAACACACGUUGUGGUAUAUUACCUGGUA" , thanks.
Marked response: label 1

Exam item: Also need "GUCCUAUUUCACGUGGGCGUGAAAGAGAGAAGUGAACCAGAGAAACACACGUUGUGGUAUAUUACCUGGUA" , thanks.
Marked response: label 1
